- Tested on: Human lung adenocarcinoma epithelial cell line (A549)
- experiment.notes: Alamar Blue cell viability, A549
- Type: cell-based
- condition.parameters: A549, 24 h, without serum
- Protocol: 10% FBS, 1% peniciline and streptomycin and 0.2% fungizone. Cells were routinely cultured at 37 °C in a humidified incubator in 5% CO2 atmosphere. Cell viability was measured using Alamar Blue assay. […] The cell viability was quantified at 605 nm using 560 nm excitation light (VICTOR 3V multilabel plate reader PerkinElmer or Tecan Infinite200 Reader). […] The viability was calculated with regard to the untreated cells control. The IC50 values were determined using Hill equation (Origin 9.0). […]
pIC50: −log10 of the molar value.

compound	pIC50
Cc1ccnc(-c2cc(C(=O)[O-])ccn2)c1.[Ru+2].c1ccc(-c2ccnc3c2ccc2c(-c4ccccc4)ccnc23)cc1.c1ccc(-c2ccnc3c2ccc2c(-c4ccccc4)ccnc23)cc1 [[Ru(dip)2(CH3bpy-COO)]^+]	5.22
O=[N+]([O-])c1nccn1CCCc1ccnc(-c2ccccn2)c1.[Ru+2].c1ccc(-c2ccnc3c2ccc2c(-c4ccccc4)ccnc23)cc1.c1ccc(-c2ccnc3c2ccc2c(-c4ccccc4)ccnc23)cc1 [[Ru(dip)2(bpy-NitroIm)]^2+]	4.93
N.N.[Cl][Pt][Cl] [Cisplatin, reference compound]	3.90
Cc1ccnc(-c2cc(C)ccn2)c1.[Ru+2].c1ccc(-c2ccnc3c2ccc2c(-c4ccccc4)ccnc23)cc1.c1ccc(-c2ccnc3c2ccc2c(-c4ccccc4)ccnc23)cc1 [[Ru(dip)2(CH3bpy-CH3)]^2+]	5.26
[Ru+2].c1ccc(-c2ccccn2)nc1.c1ccc(-c2ccnc3c2ccc2c(-c4ccccc4)ccnc23)cc1.c1ccc(-c2ccnc3c2ccc2c(-c4ccccc4)ccnc23)cc1 [[Ru(dip)2(bpy)]^2+]	4.87
